System: MALME-3M melanoma
assay-remarks: NCI tumour cell line growth inhibition, 48 h
Recorded TGI for the following molecules
Your answer is read as µM, so omit the unit and give the number.

Check out these entries, answers already filled in.
molecule="COC1OC(COCc2ccc(Cl)cc2)C(OCc2ccc(Cl)cc2)C1O (stereo not given)" assay_metric=TGI recorded_value=30.3
molecule=CCCCCCCCCCCCCCCCCC(=O)[O][Sn]([CH2]CCC)([CH2]CCC)[CH2]CCC assay_metric=TGI recorded_value=0.327
molecule="CC(=O)OCC1OC(O[C@@H]2C[C@H]3C(C)(C)[C@H](OC(C)=O)CC[C@]3(C)[C@H]3CC[C@@]45C[C@H](O)C[C@H](C)[C@@H]4CC=C5[C@@]32C)C(O)C(O)C1O (stereo not given in full)" assay_metric=TGI recorded_value=20.3
molecule="O=C1OCC2=C1C(c1cccc([N+](=O)[O-])c1)c1cc3c(cc1N2CCO)CCC3 (stereo not given)" assay_metric=TGI recorded_value=35.1
molecule="CC1=C(C(=O)OCCc2ccc([N+](=O)[O-])cc2)C(c2ccccc2C(F)(F)F)C(C(=O)OC(C)C)=C(C)N1 (stereo not given)" assay_metric=TGI recorded_value=28.5

## Task Output reported TGI of the molecule CC(C)(C)OC(=O)N1C(C2=COc3ccccc3O2)=COc2cccnc21 on MALME-3M melanoma.
## Result 2.76

## Task Output reported TGI of the molecule CC(C)c1ccc2c(c1)[C@@]1(C)CC[C@H](C)C(C)(C)C1CC2 (stereo not given in full) on MALME-3M melanoma.
## Result 37

## Task Output reported TGI of the molecule O=C(CSc1nc2ccc(Cl)cc2c(=O)n1-c1ccccc1)N=Nc1c(O)[nH]c2ccc(F)cc12 on MALME-3M melanoma.
## Result 11.6

* * *

Recorded GI50 for the following molecules
Tested on: UO-31 renal
assay-remarks: NCI tumour cell line growth inhibition, 48 h

Check out these entries, answers already filled in.
molecule="C[C@@]12CCC[C@@](C)(C(=O)O)C1CC[C@]13C=C(CO)[C@](O)(CCC12)C3 (stereo partly specified)" assay_metric=GI50 recorded_value="> 100 µM"
molecule=COc1cc(C2=Nc3c/c(=C\c4c(O)[nH]c5ccc(Cl)cc45)ccc3=N2)cc(OC)c1OC assay_metric=GI50 recorded_value="2.96 µM"
molecule=COc1cc(-c2nn(C)nc2-c2cc3ccccc3s2)cc(OC)c1OC assay_metric=GI50 recorded_value="0.744 µM"
molecule="C[CH2][Sn]1([CH2]C)[O]C2C(O)OC(CO)C(O)C2[O]1 (stereo unspecified)" assay_metric=GI50 recorded_value="68.7 µM"

## Task Quickly give me recorded GI50 for Nc1nn(C(=O)Nc2ccc(Cc3ccccc3)cc2)c2ccc(Cl)cc12
## Result 5.9 µM

## Task Quickly give me recorded GI50 for C[C@H](Nc1ccc(C#N)n(C)c1=O)c1cc2cc(Cl)ccc2[nH]c1=O
## Result 17.6 µM

## Task Quickly give me recorded GI50 for Nc1cccc(-c2nc3sccn3c2-c2ccnc(NCCCNS(=O)(=O)c3ccc(C(F)(F)F)cc3)n2)c1
## Result 3.2 µM

* * *

Recorded TGI for the following compounds
Tested on: IGROV1 ovarian
assay-remarks: NCI tumour cell line growth inhibition, 48 h

compound=CN(C)c1cc2c(Nc3ccc4nc(Cc5ccccc5)[nH]c4c3)ncnc2cn1 recorded_value="> 25 µM"
compound=Cc1nc(NC(=O)COc2cccc(/C=C3\COc4ccccc4C3=O)c2)sc1C recorded_value="0.902 µM"
compound="COC(=O)C1C2CC3C(OC(=O)C31)C2I (stereo unspecified)" recorded_value="> 100 µM"
compound="COC(=O)C1=C2C3=C(C(=O)c4ccccc4C3=O)N(Cc3ccccc3)C2(OC(C)=O)C=CC1=O (stereo unspecified)" recorded_value="> 100 µM"
compound=Cc1ccccc1NC(=O)N/C(N)=N/c1nc2ccccc2s1 recorded_value="> 100 µM"

## Task Quickly give me recorded TGI for COc1cccc(N=N/C(=N/NC(=O)c2cc(Cl)ccc2O)c2ccc(N(CCC#N)CCC#N)cc2C)c1
## Result > 100 µM

## Task Quickly give me recorded TGI for COC(OC)C1(c2ccccc2)Oc2ccccc2C1=O (stereo unspecified)
## Result > 100 µM

## Task Quickly give me recorded TGI for C[CH2][Sn]1([CH2]C)[O]C2C(O)OC(CO)C(O)C2[O]1 (stereo unspecified)
## Result > 100 µM

## Task Quickly give me recorded TGI for CCOC(=O)C(C)OC(=O)c1ccc(C)cc1 (stereo unspecified)
## Result > 100 µM

## Task Quickly give me recorded TGI for S=C1CNC(=S)CN1
## Result > 100 µM

## Task Quickly give me recorded TGI for CSc1sc(C)cc1-c1nsc(=O)o1
## Result > 100 µM
